Measurement description: A CellTox Green Cytotoxicity Assay to monitor cytotoxicity in HEK293 cells - 8 hour (AID 1224884); note: % is set by controls: 0 for no effect and ±100 for the full control effect; nearly all actives have a fitted effect of over 35% in size
Measurement context: CellTox Green fluorescence; series mostly up to 76.8 µM
Records with an inconclusive call do not appear. Calls of active or inactive are those of the source. Calls come from the whole dose curve; as a rule, active = well fitted activation curve with a large enough effect in the repeat runs; inconclusive = weak or mixed curves; inactive = flat fitted curve, though single readings scatter.
Property: cytotoxicity increase

[
  {
    "Molecule": "CC(=O)O[C@H]1CC[C@@]2(C)C(=CC[C@@H]3[C@@H]2CC[C@]2(C)C(C(C)=O)=CC[C@@H]32)C1",
    "Result": "inactive"
  },
  {
    "Molecule": "C1CSCCS1",
    "Result": "inactive"
  },
  {
    "Molecule": "CC(C)S",
    "Result": "inactive"
  },
  {
    "Molecule": "OCc1ccccc1O",
    "Result": "inactive"
  },
  {
    "Molecule": "Cn1cnc2c(F)c(Nc3ccc(Br)cc3Cl)c(C(=O)NOCCO)cc21",
    "Result": "inactive"
  },
  {
    "Molecule": "CCOC(=O)c1cc(=O)c2c(OCC(COc3cccc4oc(C(=O)OCC)cc(=O)c34)OC(=O)[C@@H](N)CCCCN)cccc2o1",
    "Result": "inactive"
  },
  {
    "Molecule": "Cc1ccsc1C(=CCCN1CCC[C@@H](C(=O)O)C1)c1sccc1C",
    "Result": "inactive"
  },
  {
    "Molecule": "CCN(CC)CC1CCCCN1CC(=O)N1c2ccccc2C(=O)Nc2cccnc21 (stereo not given)",
    "Result": "inactive"
  }
]

Here is another molecule to look at.
Request: Could you tell me which cytotoxicity increase is on file for "C[C@]12CCC(=O)C=C1CC[C@@H]1[C@@H]2CC[C@@]2(C)[C@H]1CC[C@]2(O)C(=O)CO" ?
Result: inactive

* * *

Measurement description: qHTS assay to identify small molecule agonists of the estrogen related receptor (ERR) signaling pathway from Tox21 library (AID 1224849); note: % is set by controls: 0 for no effect and ±100 for the full control effect; nearly all actives have a fitted effect of over 15% in size
Measurement context: ERR reporter cell line, ONE-Glo luciferase, 18 h; at 92.4 µM (top of the series) unless noted
Active and inactive are the calls of the source. Calls come from the whole dose curve.
Pick from active, inactive when you respond.

[
  {
    "Molecule": "NC(Cc1ccc(F)cc1)C(=O)O (configuration not stated)",
    "Label": "inactive"
  },
  {
    "Molecule": "NNS(=O)(=O)c1ccc(Oc2ccc(S(=O)(=O)NN)cc2)cc1",
    "Label": "inactive"
  },
  {
    "Molecule": "COC(=O)c1ccc(OC)cc1",
    "Label": "inactive"
  },
  {
    "Molecule": "CC(C)C[C@H](NC(=O)OCC1c2ccccc2-c2ccccc21)C(=O)O",
    "Label": "active"
  }
]

We now examine a further molecule.
Request: Query: recorded result category for "C1CCOC1" in this test
Result: inactive

* * *

// reported max activation for each item listed
Study system: Nuclear receptor subfamily 1 group I member 2 (Rattus norvegicus) (UniProt Q9R1A7)
Sequence (Q9R1A7 whole entry, looked up): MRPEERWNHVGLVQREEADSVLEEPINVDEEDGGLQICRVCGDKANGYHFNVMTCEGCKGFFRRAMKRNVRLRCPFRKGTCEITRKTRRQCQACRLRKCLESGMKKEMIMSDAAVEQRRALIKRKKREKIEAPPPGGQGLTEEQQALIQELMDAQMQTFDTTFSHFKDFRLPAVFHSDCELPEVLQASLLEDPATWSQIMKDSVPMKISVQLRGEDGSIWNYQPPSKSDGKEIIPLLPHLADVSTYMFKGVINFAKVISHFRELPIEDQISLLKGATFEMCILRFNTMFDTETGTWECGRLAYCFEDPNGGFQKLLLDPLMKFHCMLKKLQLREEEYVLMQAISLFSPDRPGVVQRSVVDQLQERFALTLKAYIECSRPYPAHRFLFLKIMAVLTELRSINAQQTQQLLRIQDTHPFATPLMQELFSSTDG
Measurement description: Rat pregnane X receptor (rPXR) activation by small molecules, qHTS assay (AID 1346983); note: % is set by controls: 0 for no effect and ±100 for the full control effect; nearly all actives have a fitted effect of over 20% in size
Measurement context: rPXR luciferase reporter cells, One-Glo luminescence, 24 h; active compounds read high
Inconclusive results are not listed.
The reply should contain only the number, in %.

Below, each entry is followed by its recorded max activation result.
[
  {
    "Compound": "CN1CCC[C@@H]1Cc1c[nH]c2ccc(CCS(=O)(=O)c3ccccc3)cc12",
    "Study system": "Nuclear receptor subfamily 1 group I member 2 (Rattus norvegicus) (UniProt Q9R1A7)",
    "Numeric result": 0.279
  },
  {
    "Compound": "COc1cc(N)c(Cl)cc1C(=O)NC1CCN(Cc2ccccc2)CC1",
    "Study system": "Nuclear receptor subfamily 1 group I member 2 (Rattus norvegicus) (UniProt Q9R1A7)",
    "Numeric result": -4.93
  }
]

Request: Look up max activation with Nuclear receptor subfamily 1 group I member 2 (Rattus norvegicus) (UniProt Q9R1A7) for this compound: CC1(C)S[C@@H]2[C@H](NC(=O)C(C(=O)O)c3ccccc3)C(=O)N2[C@H]1C(=O)O (some centres not stated)
Result: 0.938

Request: Look up max activation with Nuclear receptor subfamily 1 group I member 2 (Rattus norvegicus) (UniProt Q9R1A7) for this compound: C=CC(C)(O)CC/C=C(\C)CCC=C(C)C (configuration not stated)
Result: 3.74

Request: Look up max activation with Nuclear receptor subfamily 1 group I member 2 (Rattus norvegicus) (UniProt Q9R1A7) for this compound: "CN1CCN(C2=Nc3ccccc3Oc3ccc(Cl)cc32)CC1"
Result: -1.38
